- assayDetails: In vivo pharmacokinetic experiment in CD-1 female mice, intravenous
- conditionInfo: mouse, in vivo, iv, 2 mg/kg, CD-1 mice, 2 mpk, read-out: Whole blood Cmax/plasma Cmax ratio
Catalogue of blood plasma ratio values
Keep it simple and answer with nothing but the number.

>>> reported("NS(=O)(=O)OC[C@H]1[C@H](F)[C@@H](Nc2ncncc2C(=O)c2cc3c(s2)CCC[C@]32NCCc3ccc(F)cc32)C[C@@H]1O")
47.4
>>> reported("NS(=O)(=O)OC[C@H]1[C@H](F)[C@@H](Nc2ncncc2C(=O)c2cc3c(s2)CCC[C@]32NCCc3ccc(Cl)cc32)C[C@@H]1O")
40.5
>>> reported("NS(=O)(=O)OC[C@H]1[C@H](F)[C@@H](Nc2ncncc2C(=O)c2cc3c(s2)C=C[C@]32NCCc3ccc(Cl)cc32)C[C@@H]1O")
26

What the record says about `NS(=O)(=O)OC[C@H]1[C@H](F)[C@@H](Nc2ncncc2C(=O)c2cc3c(s2)CC[C@]32NCCc3ccc(Cl)cc32)C[C@@H]1O` : blood plasma ratio is 21.1

Data provenance: patent US20260297109A1
